Assay: Permeability of the compound by PAMPA
Assay type: ADME
Conditions: read-out: permeability
OUTCOME MEASURE: Papp (×10⁻⁶ cm/s)
Report as a plain number; the unit ×10⁻⁶ cm/s is understood.

Please look up its Papp: CS(=O)(=O)N1C[C@H](C(=O)Nc2ccc(Cl)cc2)[C@@H](C(=O)Nc2ccc(N3CCOCC3=O)cc2)C1
0.46

====

Tested on: Cynomolgus monkey
Assay: Dose normalized AUC in po dosed cynomolgus monkey
Assay type: ADME, organism-based, Macaca fascicularis
Settings: in vivo
Readings of AUC for the listed compounds
Returns: string containing the numeric result and its unit.

Please look up its AUC: O=C(Nc1ccc(Cl)cn1)[C@H]1CN(CC(F)F)C[C@@H]1C(=O)Nc1ccc(-n2ccccc2=O)cc1F
1700 ng·h/mL

***
Please look up its AUC: CCS(=O)(=O)N1C[C@H](C(=O)Nc2ccc(Cl)cn2)[C@@H](C(=O)Nc2ccc(-n3ccccc3=O)cc2F)C1
230 ng·h/mL

Then what about the compound COC(=O)N1C[C@H](C(=O)Nc2ccc(Cl)cn2)[C@@H](C(=O)Nc2ccc(-n3ccccc3=O)cc2F)C1 ?
6700 ng·h/mL

Then what about the compound CC(C)N1C[C@H](C(=O)Nc2ccc(Cl)cn2)[C@@H](C(=O)Nc2ccc(-n3ccccc3=O)cc2F)C1 ?
820 ng·h/mL

Where do the numbers come from? From ChEMBL document CHEMBL1221236.
